target: human AAT (Homo sapiens, UniProt P01009); construct: purchased CSL Behring (King of Prussia, PA, USA); test: Static binding capacity and affinity of peptide-Toyopearl resins (AAT adsorption isotherms, Langmuir fit); settings: pure AAT in PBS at pH 7.4; Langmuir isotherm fit
Sequence (P01009 25-418): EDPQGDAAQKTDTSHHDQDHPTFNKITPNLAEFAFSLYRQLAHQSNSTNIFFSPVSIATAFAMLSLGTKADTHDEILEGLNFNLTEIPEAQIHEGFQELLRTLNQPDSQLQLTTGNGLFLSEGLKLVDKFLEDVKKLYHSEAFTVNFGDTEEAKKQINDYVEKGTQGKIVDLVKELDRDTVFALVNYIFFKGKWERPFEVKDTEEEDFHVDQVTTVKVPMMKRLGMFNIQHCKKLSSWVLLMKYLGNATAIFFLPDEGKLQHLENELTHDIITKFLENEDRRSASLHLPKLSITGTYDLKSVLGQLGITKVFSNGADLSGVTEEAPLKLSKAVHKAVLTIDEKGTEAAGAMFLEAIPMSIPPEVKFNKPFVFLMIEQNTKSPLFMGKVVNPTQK
No end group written: not given here.
Measurement Name: Qmax (mgAAT per mLR)

Substance	Measured
SHWHWAG-Toyopearl: peptide ligand SHWHWAG conjugated on Toyopearl AF-Amino-650M resin (SHWHWAG-{Toyopearl AF‑Amino‑650M resin})	7.0
NHNKIHG-Toyopearl: peptide ligand NHNKIHG conjugated on Toyopearl AF-Amino-650M resin (NHNKIHG-{Toyopearl AF‑Amino‑650M resin})	6.3
KFHAWNG-Toyopearl: peptide ligand KFHAWNG conjugated on Toyopearl AF-Amino-650M resin (KFHAWNG-{Toyopearl AF‑Amino‑650M resin})	8.9
KHAWIFG-Toyopearl: peptide ligand KHAWIFG conjugated on Toyopearl AF-Amino-650M resin (KHAWIFG-{Toyopearl AF‑Amino‑650M resin})	7.2
